- target: Topoisomerase II (Topo II)
- assay.overview: ELISA-based Topo II inhibition assay kit (Abcam), recombinant human enzyme, colorimetric
outcome.measure: pIC50
# pIC50 = -log10(concentration in molar units)

Data request, read-out pIC50, for O=c1oc(=O)c2c(ccc3nc4ccccc4[nH]c32)c1-c1ccccc1 7.35
